target: IGF2 (Homo sapiens, UniProt P01344); experiment: SPR (Biacore T200) of recombinant IGF2R domain 11 mutants on immobilised biotinylated IGF2; type: binding; parameters: purchased GroPep; settings: Table 1; 25° C., HBS-EP pH 7.4
Sequence (P01344 25-91): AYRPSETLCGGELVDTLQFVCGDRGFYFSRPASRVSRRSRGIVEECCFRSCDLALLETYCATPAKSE
Reported Kinetics koff is given for each of the following molecules.

P1599A: domain 11 FG loop mutant P1599A, AB5 background unless otherwise stated (protein) MKSNEHDDCQVTNPSTGHLFDLSSLSGRAGFTAAYAKGWGVYMSICGENENCPPGVGACFGQTRISVGKANKRLRYVDQVLQLVYKDGSPCASKSGLSYKSVISFVCRPEAGPTNRPMLISLDKQTCTLFFSWHTPLACEQATECSV: >0.1 s⁻¹

Challenge: Tell me the measured Kinetics koff of S1602A: domain 11 AB5 background + FG loop S1602A (protein) MKSNEHDDCQVTNPSTGHLFDLSSLSGRAGFTAAYAKGWGVYMSICGENENCPPGVGACFGQTRISVGKANKRLRYVDQVLQLVYKDGSPCPSKAGLSYKSVISFVCRPEAGPTNRPMLISLDKQTCTLFFSWHTPLACEQATECSV , please.
Response given: 0.0250 s⁻¹

Challenge: Tell me the measured Kinetics koff of L1604A: domain 11 AB5 background + FG loop L1604A (protein) MKSNEHDDCQVTNPSTGHLFDLSSLSGRAGFTAAYAKGWGVYMSICGENENCPPGVGACFGQTRISVGKANKRLRYVDQVLQLVYKDGSPCPSKSGASYKSVISFVCRPEAGPTNRPMLISLDKQTCTLFFSWHTPLACEQATECSV , please.
Response given: 0.0397 s⁻¹

The reported measurements were obtained from patent US10494415B2.
